# bioavailability listing for each entry below
Test: in vivo pharmacokinetic study in SD rats
Conditions: male, rat, plasma, 1 mg/kg PO vs 1 mg/kg IV, read-out: Oral bioavailability F (%)
Expressed in %, but write only the number.

// worked examples, bioavailability included
CN(C)C(=O)c1nccc(Nc2c(N[C@@H](c3nc(Cl)ccc3F)[C@@]3(C)CC(F)(F)CO3)c(=O)c2=O)c1O [068B] | 23.4
CN(C)C(=O)c1nccc(Nc2c(NC(c3nc(F)ccc3F)C3(C)CC4CC4C3)c(=O)c2=O)c1O (stereo not shown) | 26.9
CN(C)C(=O)c1nccc(Nc2c(N[C@@H](C#CC3CCC3)[C@]3(C)CC(F)(F)CO3)c(=O)c2=O)c1O (single isomer, unassigned) [110A] | 68.6
Cc1cccnc1[C@H](Nc1c(Nc2ccnc(C(=O)N(C)C)c2O)c(=O)c1=O)C12CC(C1)C2 | 39.8
Cc1nccnc1[C@H](Nc1c(Nc2ccc(F)c(C(=O)N(C)C)c2O)c(=O)c1=O)C1(C)CCCC1 | 24

Inquiry: Report bioavailability for `Cc1cccnc1[C@H](Nc1c(Nc2ccc(F)c(C(=O)N(C)C)c2O)c(=O)c1=O)C1(C)CC(F)(F)C1`
Reply text: 21.1

Inquiry: Supply bioavailability value. Item: Cc1cc(F)cnc1[C@H](Nc1c(Nc2ccnc(C(=O)N(C)C)c2O)c(=O)c1=O)[C@]1(C)CC(F)(F)CO1 [093A]
Reply text: 23.7

* * *

Recorded Liver microsome T1-2 (min) Mouse for the following compounds
Assay: in vitro liver microsome metabolic stability, mouse
Type: in vitro ADME
Details: Mouse liver microsomes, 37°C

Cc1cccnc1[C@H](Nc1c(Nc2ccc(Cl)c(C(=O)N(C)C)c2O)c(=O)c1=O)C1(C)CCCC1 [compound 063] | ≥120 min
CN(C)C(=O)c1nccc(Nc2c(NC(c3nc(Cl)ccc3F)C3(C)CC4CC4C3)c(=O)c2=O)c1O (stereo not shown) [compound 085] | 54.79 min
CN(C)C(=O)c1nccc(Nc2c(N[C@@H](c3nc(Cl)ccc3F)[C@@]3(C)CC(F)(F)CO3)c(=O)c2=O)c1O [068B] | 65.23 min
CC#C[C@H](Nc1c(Nc2ccc(Cl)c(C(=O)N(C)C)c2O)c(=O)c1=O)C1(C)CCCC1 [compound 114] | 361.28 min
CN(C)C(=O)c1nccc(Nc2c(N[C@@H](c3ccc(F)cn3)C3(C)CCCC3)c(=O)c2=O)c1O [compound 005] | 1188.6 min

Inquiry: Please report Liver microsome T1-2 (min) Mouse for the following compound: CN(C)C(=O)c1nccc(Nc2c(N[C@@H](c3cc(F)cc(F)n3)C3(C)CCCC3)c(=O)c2=O)c1O [compound 022]
Reply text: 1925.01 min

Inquiry: Give me measured Liver microsome T1-2 (min) Mouse, please, for this compound: CN(C)C(=O)c1nccc(Nc2c(N[C@@H](c3ccccn3)C3(C)CCCC3)c(=O)c2=O)c1O [compound 004]
Reply text: 6368.42 min

Inquiry: Supply reported Liver microsome T1-2 (min) Mouse belonging to this compound: Cc1cc(F)cnc1[C@H](Nc1c(Nc2ccnc(C(=O)N(C)C)c2O)c(=O)c1=O)C1(C)CCCC1 [compound 065]
Reply text: ≥120 min

Inquiry: Output measured Liver microsome T1-2 (min) Mouse for this item: Cc1cccnc1[C@@H](Nc1c(Nc2ccnc(C(=O)N(C)C)c2O)c(=O)c1=O)[C@]1(C)CCC(F)(F)C1 (single isomer, unassigned) [125D]
Reply text: 19686.4 min

Inquiry: Note down Liver microsome T1-2 (min) Mouse recorded for CN(C)C(=O)c1nccc(Nc2c(N[C@@H](c3cccc(F)n3)C3(C)CCCC3)c(=O)c2=O)c1O [compound 002]
Reply text: 1127.82 min

* * *

Listing of entries alongside the reported Liver microsome T1-2 (min) Human.
Test: in vitro liver microsome metabolic stability, human
Type: in vitro ADME
Details: Human liver microsomes, 37°C
Express it in min; write the number only.

CN(C)C(=O)c1nccc(Nc2c(N[C@@H](C#CC3CC3)C3(C)CCCC3)c(=O)c2=O)c1O [compound 115] | 247.27

Inquiry: Input CN(C)C(=O)c1nccc(Nc2c(N[C@@H](c3cc(F)cc(F)n3)C3(C)CCCC3)c(=O)c2=O)c1O [compound 022] , output reported Liver microsome T1-2 (min) Human.
Reply text: 271.15

Inquiry: Supply Liver microsome T1-2 (min) Human value. Item: Cc1cccnc1[C@H](Nc1c(Nc2ccc(Cl)c(C(=O)N(C)C)c2O)c(=O)c1=O)C1(C)CC(F)CO1 (some centres unmarked) [compound 081]
Reply text: 713.96

Inquiry: Quote Liver microsome T1-2 (min) Human reported for CN(C)C(=O)c1nccc(Nc2c(N[C@@H](c3ccc(F)cn3)C3(C)CCCC3)c(=O)c2=O)c1O [compound 005] please.
Reply text: 431.17

* * *

Test: in vitro liver microsome metabolic stability, beagle dog
Assay type: in vitro ADME
Conditions: Beagle dog liver microsomes, 37°C
Tag: True if measured Liver microsome T1-2 (min) Beagle dog is not below 300 min, False if it is.

CN(C)C(=O)c1nccc(Nc2c(NC(c3nc(Cl)ccc3F)C3(C)CC4CC4C3)c(=O)c2=O)c1O (stereo not drawn) [compound 085] | False
Cc1cc(F)cnc1[C@H](Nc1c(Nc2ccnc(C(=O)N(C)C)c2O)c(=O)c1=O)C1(C)CCCC1 [compound 065] | False
CN(C)C(=O)c1nccc(Nc2c(N[C@@H](c3cccc(F)n3)C3(C)CCCC3)c(=O)c2=O)c1O [compound 002] | False
CN(C)C(=O)c1nccc(Nc2c(NC(c3nc(F)ccc3F)C3(C)CC4CC4C3)c(=O)c2=O)c1O (stereo not drawn) [compound 126] | True
Cc1cccnc1C(Nc1c(Nc2ccc(Cl)c(C(=O)N(C)C)c2O)c(=O)c1=O)C1(C)CC(F)(F)CO1 (stereo not drawn) [compound 080] | True

We now examine a further compound.
Inquiry: Decide: is the reported value of Liver microsome T1-2 (min) Beagle dog for CN(C)C(=O)c1nccc(Nc2c(NC(C#CC3CCC3)C3(C)CC(F)(F)CO3)c(=O)c2=O)c1O (stereo not drawn) [compound 110] equal to or greater than 300 min?
Reply text: True

* * *

Assay: in vivo pharmacokinetic study in SD rats
Conditions: male, rat, plasma, 1 mg/kg, IV
measurement type: AUC(0-t)

These recorded examples may help you get a feel for the data.
CN(C)C(=O)c1nccc(Nc2c(N[C@@H](c3nc(Cl)ccc3F)[C@@]3(C)CC(F)(F)CO3)c(=O)c2=O)c1O [068B] | 1270 ng·h/mL
Cc1cc(F)cnc1[C@H](Nc1c(Nc2ccnc(C(=O)N(C)C)c2O)c(=O)c1=O)[C@]1(C)CC(F)(F)CO1 [093A] | 1240 ng·h/mL
CN(C)C(=O)c1nccc(Nc2c(N[C@@H](c3nc(C(F)F)ccc3F)C3(C)CCCC3)c(=O)c2=O)c1O | 786 ng·h/mL
Cc1cccnc1[C@H](Nc1c(Nc2ccnc(C(=O)N(C)C)c2O)c(=O)c1=O)C1(C)CC(F)(F)C1 | 1180 ng·h/mL
Cc1cccnc1[C@H](Nc1c(Nc2ccnc(C(=O)N(C)C)c2O)c(=O)c1=O)C1(C)CCCC1 | 1160 ng·h/mL

Inquiry: Look up and state reported AUC(0-t) for `Cc1cccnc1[C@H](Nc1c(Nc2ccnc(C(=O)N(C)C)c2O)c(=O)c1=O)C12CC(C1)C2`
Reply text: 683 ng·h/mL

Inquiry: Identify AUC(0-t) associated with the compound CN(C)C(=O)c1nccc(Nc2c(NC(c3nc(F)ccc3F)C3(C)CC4CC4C3)c(=O)c2=O)c1O (stereo not shown)
Reply text: 1550 ng·h/mL

Inquiry: Hello, please tell me recorded AUC(0-t) for this one: Cc1cc(F)cnc1[C@H](Nc1c(Nc2ccnc(C(=O)N(C)C)c2O)c(=O)c1=O)[C@@]1(C)CC(F)(F)CO1 [093B]
Reply text: 716 ng·h/mL

Inquiry: Provide measured AUC(0-t) value, entry: `Cc1nccnc1[C@H](Nc1c(Nc2ccc(F)c(C(=O)N(C)C)c2O)c(=O)c1=O)C1(C)CCCC1`
Reply text: 752 ng·h/mL

Inquiry: Indicate its recorded AUC(0-t); the compound in question is CN(C)C(=O)c1nccc(Nc2c(N[C@@H](C#CC3CCC3)[C@]3(C)CC(F)(F)CO3)c(=O)c2=O)c1O (single isomer, unassigned) [110A]
Reply text: 580 ng·h/mL

* * *

Experiment: in vivo pharmacokinetic study in SD rats
Conditions: male, rat, plasma, 1 mg/kg, PO
Method: 2.2.1 Rats: SD rats, SPF grade, 6 rats per compound, male, body weight range 180-200 g. 2.2.2 Housing conditions: The animals were housed in an SPF-grade animal facility with free access to food and water, three per cage, under a 12/12-hour light/dark cycle (7:00 am/7:00 pm), at a temperature of 23 ± 3°C. […] The data were analyzed using WinNonlin via a non-compartmental model to obtain PK parameters (Cmax, AUC0-last, AUCinf, T1/2, etc., selected based on different routes of administration). […]
measurement type: AUC(0-t) (ng·h/mL)
Just the number please, in ng·h/mL, no unit attached.

Answered cases to consult:
Cc1cc(F)cnc1[C@H](Nc1c(Nc2ccnc(C(=O)N(C)C)c2O)c(=O)c1=O)[C@@]1(C)CC(F)(F)CO1 [093B] | 370
CN(C)C(=O)c1nccc(Nc2c(N[C@@H](c3nc(Cl)ccc3F)[C@@]3(C)CC(F)(F)CO3)c(=O)c2=O)c1O [068B] | 298
Cc1cc(F)cnc1[C@H](Nc1c(Nc2ccnc(C(=O)N(C)C)c2O)c(=O)c1=O)[C@]1(C)CC(F)(F)CO1 [093A] | 295

Inquiry: Read off the recorded AUC(0-t) for `Cc1cccnc1[C@H](Nc1c(Nc2ccnc(C(=O)N(C)C)c2O)c(=O)c1=O)C1(C)CC(F)(F)C1`
Reply text: 499

Inquiry: Respond only with AUC(0-t) recorded for `CN(C)C(=O)c1nccc(Nc2c(N[C@@H](c3nc(Cl)ccc3F)C3(C)CCCC3)c(=O)c2=O)c1O`
Reply text: 596
